The measured values listed here are drawn from patent US20260062426A1.

- EXPERIMENTAL TARGET: CCNE1 (Homo sapiens, UniProt P24864+P24941)
- Construct: host or cells: HEK293
- ASSAY NAME: CCNE1 HIBIT PQ (protein quantification), degradation
- Format: cell-based
- MEASUREMENT CONTEXT: PQ = Protein Quantification
DC50 under 0.9 nM gets 1.0, anything at or over 0.9 nM gets 0.0.

Input line: Lab log: compare recorded DC50 with 0.9 nM; is it strictly lower for CC(C)Oc1c(-c2cn[nH]c2)ncn2nc(Nc3ccc(S(=O)(=O)N(C)CCCN4CCC(c5ccc6c(c5)n(C)c(=O)n6[C@H]5CCC(=O)NC5=O)CC4)cc3F)nc12 (racemic) [Compound 16] ?
Output line: 1.0

Input line: Is it true that DC50 reported for CC(C)Oc1c(-c2cn[nH]c2)ncn2nc(Nc3ccc(S(=O)(=O)N(C)CCCN4CCC(c5ccc6c(c5)n(C)c(=O)n6C5CCC(=O)NC5=O)CC4)c4ccoc34)nc12 (racemic) [Compound 53] is less than 0.9 nM?
Output line: 1.0

Input line: Lab note: confirm whether the reported DC50 for this molecule is below 0.9 nM, equality not counting. molecule: CC(C)Oc1c(-c2cn[nH]c2)ncn2nc(N[C@H]3CCN(S(=O)(=O)c4cccc(CN5CCN(c6ccc7c(N8CCC(=O)NC8=O)nn(C)c7c6)C(C)C5)c4)C[C@H]3C)nc12 (stereo partly drawn) [Compound 49]
Output line: 0.0

Input line: Check if DC50 falls below 0.9 nM for CC(C)Oc1c(-c2cn[nH]c2)ncn2nc(Nc3ccc(S(=O)(=O)c4cccc(C(C)N5CCN(c6ccc7c(N8CCC(=O)NC8=O)nn(C)c7c6)CC5)c4)cc3F)nc12 (single isomer, unassigned) [Compound 98] .
Output line: 0.0

Input line: I'd appreciate it if you could check whether CC(C)Oc1c(-c2cn[nH]c2)ncn2nc(Nc3ccc(S(=O)(=O)N(C)CCCN4CCN(c5cccc6c5n(C)c(=O)n6C5CCC(=O)NC5=O)CC4)cc3F)nc12 (racemic) [Compound 17] has DC50 smaller than 0.9 nM.
Output line: 0.0

Input line: Determine whether this molecule shows DC50 lower than 0.9 nM (ties excluded): CC(C)Oc1c(-c2cn[nH]c2)ncn2nc(Nc3ccc(S(=O)(=O)N(C)CCCN4CCN(c5ccc6c(c5)n(C)c(=O)n6C5CCC(=O)NC5=O)CC4)cc3F)nc12 (stereo not drawn) [Compound 66]
Output line: 0.0

Input line: Criterion: DC50 strictly below 0.9 nM. Is it met by CC(C)Oc1c(-c2cn[nH]c2)ncn2nc(Nc3ccc(S(=O)(=O)c4cccc(C(C)N5CCC(c6ccc7c(N8CCC(=O)NC8=O)nn(C)c7c6)CC5)c4)cc3F)nc12 (racemic) [Compound 85] ?
Output line: 0.0

Input line: Say whether its DC50 is strictly beneath 0.9 nM. Entry: CC(C)Oc1c(-c2cn[nH]c2)ncn2nc(Nc3ccc(S(=O)(=O)N(C)CCCN4CCC(c5cccc6c(N7CCC(=O)NC7=O)nn(C)c56)CC4)cc3F)nc12 [Compound 24]
Output line: 0.0

Input line: # TODO verify DC50 < 0.9 nM strictly for this molecule: CC(C)Oc1c(-c2cn[nH]c2)ncn2nc(Nc3ccc(S(=O)(=O)N(C)CCCN4CCC(c5ccc6c(c5)n(C)c(=O)n6C5CCC(=O)NC5=O)CC4)c4cnccc34)nc12 (racemic) [Compound 61]
Output line: 0.0

====

- EXPERIMENTAL TARGET: CDK2 (Homo sapiens, UniProt P24941)
- Construct: host or cells: HEK293
- ASSAY NAME: CDK2 HIBIT PQ (protein quantification), degradation
- Type: cell-based
- MEASUREMENT CONTEXT: Max = Maximum
Short version: CDK2 HIBIT PQ Max (%) at least 90% is yes, less is no.

Input line: Threshold query (CDK2 HIBIT PQ Max (%) >= 90%) on CC(C)Oc1c(-c2cn[nH]c2)ncn2nc(N[C@H]3CCN(S(=O)(=O)c4cccc(CN5CCN(c6ccc7c(N8CCC(=O)NC8=O)nn(C)c7c6)C(C)C5)c4)C[C@H]3C)nc12 (stereo partly drawn)
Output line: yes

Input line: Does the reported CDK2 HIBIT PQ Max (%) for CC(C)Oc1c(-c2cn[nH]c2)ncn2nc(Nc3ccc(S(=O)(=O)N(C)CCCN4CCC(c5ccc6c(c5)n(C)c(=O)n6C5CCC(=O)NC5=O)CC4)c4ccoc34)nc12 (racemic) fall at or above the 90% mark?
Output line: no

Input line: Hi, just wondering whether CC(C)Oc1c(-c2cn[nH]c2)ncn2nc(Nc3ccc(S(=O)(=O)N(C)CCCN4CCN(c5ccc6c(c5)n(C)c(=O)n6C5CCC(=O)NC5=O)C[C@H]4C(C)C)cc3F)nc12 (stereo partly drawn) shows CDK2 HIBIT PQ Max (%) of 90% or higher.
Output line: no

Input line: // inclusive: CDK2 HIBIT PQ Max (%) at least 90%? input: "CC(C)Oc1c(-c2cn[nH]c2)ncn2nc(Nc3ccc(S(=O)(=O)c4cccc(CN5CC(c6ccc7c(N8CCC(=O)NC8=O)nn(C)c7c6)C5)c4)cc3F)nc12"
Output line: no

Input line: Could you tell me if the measured CDK2 HIBIT PQ Max (%) of CC(C)Oc1c(-c2cn[nH]c2)ncn2nc(Nc3c(F)cc(S(=O)(=O)N(C)CCCN4CCC(c5ccc6c(c5)n(C)c(=O)n6C5CCC(=O)NC5=O)CC4)cc3F)nc12 (racemic) reaches 90% or more?
Output line: yes

Input line: Decide: CDK2 HIBIT PQ Max (%) of CC(C)Oc1c(-c2cn[nH]c2)ncn2nc(Nc3ccc(S(=O)(=O)c4cccc(OC5CN(C6CCN(c7ccc8c(c7)CN(C7CCC(=O)NC7=O)C8=O)CC6)C5)c4)cc3F)nc12 (racemic) >= 90%?
Output line: no

Input line: Could you verify whether the entry CC(C)Oc1c(-c2cn[nH]c2)ncn2nc(Nc3ccc(S(=O)(=O)c4cccc(CN5CC6(C5)CN(c5ccc7c(c5)CN(C5CCC(=O)NC5=O)C7=O)C6)c4)cc3F)nc12 (racemic) shows CDK2 HIBIT PQ Max (%) of no less than 90%?
Output line: no

Input line: Decide: is the reported value of CDK2 HIBIT PQ Max (%) for "CC(C)Oc1c(-c2cn[nH]c2)ncn2nc(Nc3ccc(S(=O)(=O)c4cccc(CN5CCC(c6cccc7c(N8CCC(=O)NC8=O)nn(C)c67)CC5)c4)cc3F)nc12" equal to or greater than 90%?
Output line: no

Input line: Is the recorded value of CDK2 HIBIT PQ Max (%) equal to or greater than 90% for this compound? CC(C)Oc1c(-c2cn[nH]c2)ncn2nc(Nc3ccc(S(=O)(=O)c4cccc(N5CCC6C5CN6c5ccc6c(c5)CN(C5CCC(=O)NC5=O)C6=O)c4)cc3F)nc12 (stereo not drawn)
Output line: no

====

Provide the recorded CCNE1 HIBIT PQ Max (%) for the entries that follow.
- EXPERIMENTAL TARGET: CCNE1 (Homo sapiens, UniProt P24864+P24941)
- Construct: host or cells: HEK293
- ASSAY NAME: CCNE1 HIBIT PQ (protein quantification), degradation
- Format: cell-based
- MEASUREMENT CONTEXT: Max = Maximum
Report as a plain number; the unit % is understood.

Input line: Please give the measured CCNE1 HIBIT PQ Max (%) for this molecule: CC(C)Oc1c(-c2cn[nH]c2)ncn2nc(Nc3ccc(S(=O)(=O)N(C)CCCN4CCC(c5ccc6c(c5)n(C)c(=O)n6C5CCC(=O)NC5=O)CC4)cc3)nc12 (racemic)
Output line: 82

Input line: Using the record for CC(C)Oc1c(-c2cn[nH]c2)ncn2nc(Nc3ccc(S(=O)(=O)N4CCCC(CN5CCC(c6ccc7c(N8CCC(=O)NC8=O)nn(C)c7c6)CC5)C4)cc3F)nc12 (racemic) [Compound 87] , report its CCNE1 HIBIT PQ Max (%).
Output line: 79

Input line: CCNE1 HIBIT PQ Max (%) lookup needed for CC(C)Oc1c(-c2cn[nH]c2)ncn2nc(Nc3ccc(S(=O)(=O)c4cccc(CN5CCN(c6ccc7c(N8CCC(=O)NC8=O)nn(C)c7c6)CC5C(C)C)c4)cc3F)nc12 (single isomer, unassigned) [Compound 106] , thanks.
Output line: 59

Input line: Requested read-out: CCNE1 HIBIT PQ Max (%). Entry: CC(C)Oc1c(-c2cn[nH]c2)ncn2nc(Nc3ccc(S(=O)(=O)N(C)CCCN4CCC(c5ccc6c(c5)n(C)c(=O)n6C5CCC(=O)NC5=O)CC4)c4ccoc34)nc12 (racemic)
Output line: 61

====

- EXPERIMENTAL TARGET: CDK9 (Homo sapiens, UniProt P50750)
- Construct: host or cells: HEK293
- Sequence (P50750 whole entry): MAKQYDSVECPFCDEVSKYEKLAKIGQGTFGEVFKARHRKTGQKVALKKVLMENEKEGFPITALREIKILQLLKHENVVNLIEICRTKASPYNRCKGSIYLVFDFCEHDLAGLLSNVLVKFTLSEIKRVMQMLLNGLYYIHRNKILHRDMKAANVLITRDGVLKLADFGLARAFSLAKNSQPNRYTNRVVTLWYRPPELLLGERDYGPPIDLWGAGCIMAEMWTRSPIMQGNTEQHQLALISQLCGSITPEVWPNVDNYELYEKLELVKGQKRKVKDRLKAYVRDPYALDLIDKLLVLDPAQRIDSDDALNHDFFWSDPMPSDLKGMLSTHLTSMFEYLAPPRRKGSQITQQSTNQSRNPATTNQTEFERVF
- ASSAY NAME: CDK9 HIBIT PQ (protein quantification), degradation
- Type: cell-based
- MEASUREMENT CONTEXT: PQ = Protein Quantification
PARAMETER: log10 DC50 (log10 of the value in nM)
Form field - Quantity: DC50; Unit: nM; Scale: log10

Input line: Can you look up log10 DC50 on CDK9 (Homo sapiens, UniProt P50750) for "CC(C)Oc1c(-c2cn[nH]c2)ncn2nc(NC3CCN(S(=O)(=O)c4cccc(CN5CCC(c6ccc7c(N8CCC(=O)NC8=O)nn(C)c7c6)CC5)c4)CC3)nc12" ?
Output line: 0.47

Input line: Provide the documented log10 DC50 with CDK9 (Homo sapiens, UniProt P50750) as the system for CC(C)Oc1c(-c2cn[nH]c2)ncn2nc(Nc3ccc(S(=O)(=O)N4CCCC(CN5CCC(c6ccc7c(N8CCC(=O)NC8=O)nn(C)c7c6)CC5)C4)cc3F)nc12 (single isomer, unassigned) [Compound 94]
Output line: 0.72

Input line: Query the reported log10 DC50 for CDK9 (Homo sapiens, UniProt P50750); item: CC(C)Oc1c(-c2cn[nH]c2)ncn2nc(NC3CCN(S(=O)(=O)N4CCC(CN5CCC(c6cccc7c6n(C)c(=O)n7C6CCC(=O)NC6=O)CC5)CC4)CC3)nc12 (racemic)
Output line: 0.17

Input line: // fetch CDK9 (Homo sapiens, UniProt P50750) log10 DC50 for CC(C)Oc1c(-c2cn[nH]c2)ncn2nc(Nc3ccc(S(=O)(=O)c4cccc(C(C)N5CCC(c6ccc7c(N8CCC(=O)NC8=O)nn(C)c7c6)CC5)c4)cc3F)nc12 (single isomer, unassigned) [Compound 101]
Output line: 1.03

Input line: # query: log10 DC50 | item CC(C)Oc1c(-c2cn[nH]c2)ncn2nc(Nc3ccc(S(=O)(=O)N(C)CCCN4CCC(c5ccc6c(c5)n(C)c(=O)n6C5CCC(=O)NC5=O)CC4)cc3)nc12 (racemic) | system: CDK9 (Homo sapiens, UniProt P50750)
Output line: 0.20

Input line: Report log10 DC50 for CC(C)Oc1c(-c2cn[nH]c2)ncn2nc(Nc3ccc(S(=O)(=O)c4cccc(C(C)N5CCC(c6ccc7c(N8CCC(=O)NC8=O)nn(C)c7c6)CC5)c4)cc3F)nc12 (single isomer, unassigned) [Compound 100] tested on CDK9 (Homo sapiens, UniProt P50750).
Output line: 1.09

Input line: Under CDK9 (Homo sapiens, UniProt P50750): log10 DC50 value of CC(C)Oc1c(-c2cn[nH]c2)ncn2nc(Nc3ccc(S(=O)(=O)N(C)CCCN4CCN(c5cccc6c5n(C)c(=O)n6C5CCC(=O)NC5=O)CC4)cc3F)nc12 (racemic) ?
Output line: 0.43

Input line: Recorded log10 DC50 for CCC1CN(c2ccc3c(N4CCC(=O)NC4=O)nn(C)c3c2)CCN1Cc1cccc(S(=O)(=O)N2CC[C@H](Nc3nc4c(OC(C)C)c(-c5cn[nH]c5)ncn4n3)[C@H](C)C2)c1 (some centres unmarked) with CDK9 (Homo sapiens, UniProt P50750), please?
Output line: 1.37
